Consider the following compounds and their measured clearance readings.
- test_summary: Pharmacokinetics in rat after intravenous administration
- Format: in vivo
- condition_notes: plasma, male rats, intravenous bolus 0.5 mg/kg, read-out: CL plasma

compound	clearance
CCc1c2c(nc3ccccc13)-c1cc3c(c(=O)n1C2)COC(=O)[C@@]3(CC)OC(=O)[C@@H](NC(=O)[C@@H]1CCCN1C(=O)[C@H](CC(=O)[O-])NC(=O)CCOCCOCCOCCNC(=O)[C@H](CCCCNC(=O)CCOCCOCCOCCNC(=O)CCC(=O)Nc1cccc2c(C(=O)NCC(=O)N3CC(F)(F)C[C@H]3C#N)ccnc12)NC(=O)CCOCCOCCOCCNC(=O)CCC(=O)Nc1cccc2c(C(=O)NCC(=O)N3CC(F)(F)C[C@H]3C#N)ccnc12)C(C)C.[Na+] [Compound 20]	0.5 to 5 mL/min/kg
CCc1c2c(nc3ccccc13)-c1cc3c(c(=O)n1C2)COC(=O)[C@@]3(CC)OC(=O)[C@@H](NC(=O)[C@@H]1CCCN1C(=O)[C@H](CC(=O)O)NC(=O)CCOCCOCCOCCNC(=O)NCCCC[C@H](NC(=O)N[C@@H](CCC(=O)O)C(=O)O)C(=O)O)C(C)C [Compound 5]	0.5 to 5 mL/min/kg

Please give the measured clearance for this compound: CCc1c2c(nc3ccccc13)-c1cc3c(c(=O)n1C2)COC(=O)[C@@]3(CC)OC(=O)[C@@H](NC(=O)[C@@H]1CCCN1C(=O)[C@H](CC(=O)O)NC(=O)CCOCCOCCOCCNC(=O)CCC(=O)Nc1cccc2c(C(=O)NCC(=O)N3CC(F)(F)C[C@H]3C#N)ccnc12)C(C)C [Compound 6]
> 5 mL/min/kg

----------
- test_summary: Pharmacokinetics in rat after intravenous administration
- Assay type: in vivo
- condition_notes: plasma, male rats, intravenous bolus 0.5 mg/kg
Consider the following compounds and their measured half-life readings.

Example entries begin here.
smiles_code	half-life
CCCNC(=O)Nc1cccc(S(=O)(=O)Nc2cccc([C@@H](CC(=O)O)NC(=O)Nc3ccc(NC(=O)NCCOCCOCCOCCC(=O)N[C@@H](CC(=O)O)C(=O)N4CCC[C@H]4C(=O)N[C@H](C(=O)N[C@@H](CCN(C(=O)CO)[C@@H](c4cc(-c5cc(F)ccc5F)cn4Cc4ccccc4)C(C)(C)C)C(=O)NC)C(C)C)cc3)c2)c1	< 0.5 h
CCc1c2c(nc3ccccc13)-c1cc3c(c(=O)n1C2)COC(=O)[C@@]3(CC)OC(=O)[C@@H](NC(=O)[C@@H]1CCCN1C(=O)[C@H](CC(=O)O)NC(=O)CCOCCOCCOCCNC(=O)CCC(=O)Nc1cccc2c(C(=O)NCC(=O)N3CC(F)(F)C[C@H]3C#N)ccnc12)C(C)C	< 0.5 h
CCCNC(=O)Nc1cccc(S(=O)(=O)Nc2cccc([C@@H](CC(=O)O)NC(=O)Nc3ccc(NC(=O)NCCOCCOCCOCCC(=O)N[C@@H](CC(N)=O)C(=O)N4CCC[C@H]4C(=O)N[C@H](C(=O)NCCCN(C(=O)CO)[C@@H](c4cc(-c5cc(F)ccc5F)cn4Cc4ccccc4)C(C)(C)C)C(C)C)cc3)c2)c1	5 to 10 h
CCc1c2c(nc3ccccc13)-c1cc3c(c(=O)n1C2)COC(=O)[C@@]3(CC)OC(=O)[C@@H](NC(=O)[C@@H]1CCCN1C(=O)[C@H](CC(=O)O)NC(=O)CCOCCOCCOCCNC(=O)NCCCC[C@H](NC(=O)N[C@@H](CCC(=O)O)C(=O)O)C(=O)O)C(C)C	1 to 5 h
CCc1c2c(nc3ccccc13)-c1cc3c(c(=O)n1C2)COC(=O)[C@@]3(CC)OC(=O)[C@@H](NC(=O)[C@@H]1CCCN1C(=O)[C@H](CC(=O)[O-])NC(=O)CCOCCOCCOCCNC(=O)CCCC(=O)NCCCC[C@H](NC(=O)CCOCCOCCOCCNC(=O)CCC(=O)Nc1cccc2c(C(=O)NCC(=O)N3CC(F)(F)C[C@H]3C#N)ccnc12)C(=O)NCCCCCCCC(=O)[O-])C(C)C.[Na+].[Na+]	0.5 to 1 h

# context switch: different compound, same half-life
Please give the measured half-life for this compound: CCCNC(=O)Nc1cccc(S(=O)(=O)Nc2cccc([C@@H](CC(=O)O)NC(=O)Nc3ccc(NC(=O)NCCOCCOCCOCCC(=O)NCCCC[C@H](NC(=O)CCOCCOCCOCCNC(=O)Nc4ccc(NC(=O)N[C@H](CC(=O)O)c5cccc(NS(=O)(=O)c6cccc(NC(=O)NCCC)c6)c5)cc4)C(=O)NCCOCCOCCOCCC(=O)N[C@@H](CC(=O)O)C(=O)N4CCC[C@H]4C(=O)N[C@H](C(=O)N[C@@H](CCN(C(=O)CO)[C@@H](c4cc(-c5cc(F)ccc5F)cn4Cc4ccccc4)C(C)(C)C)C(=O)NC)C(C)C)cc3)c2)c1
10 to 40 h

----------
- Test system: HT29
- test_summary: Cytotoxicity in vitro in the presence and absence of elastase (MTT assay)
- Type: cell-based
- condition_notes: HT29 cells; with 10 nM elastase (NE); 72 h incubation; read-out: IC50 with neutrophil elastase
Consider the following compounds and their measured IC50 readings.

compound	IC50
CCCNC(=O)Nc1cccc(S(=O)(=O)Nc2cccc([C@@H](CC(=O)O)NC(=O)Nc3ccc(NC(=O)NCCOCCOCCOCCC(=O)N[C@@H](CC(=O)O)C(=O)N4CCC[C@H]4C(=O)N[C@H](C(=O)OC(C)(C)CCNC(=O)[C@H](Cc4ccccc4)NC(=O)[C@H](C)[C@@H](OC)[C@@H]4CCCN4C(=O)C[C@@H](OC)[C@H]([C@@H](C)CC)N(C)C(=O)[C@@H](NC(=O)[C@H](C(C)C)N(C)C)C(C)C)C(C)C)cc3)c2)c1	1 to 9.9 nM

Please give the measured IC50 for this compound: CCCNC(=O)Nc1cccc(S(=O)(=O)Nc2cccc([C@@H](CC(=O)O)NC(=O)Nc3ccc(NC(=O)NCCOCCOCCOCCC(=O)N[C@@H](CC(N)=O)C(=O)N4CCC[C@H]4C(=O)N[C@H](C(=O)N[C@@H](CCN(C(=O)CO)[C@@H](c4cc(-c5cc(F)ccc5F)cn4Cc4ccccc4)C(C)(C)C)C(=O)NC)C(C)C)cc3)c2)c1
1 to 9.9 nM

Please give the measured IC50 for this compound: CCc1c2c(nc3ccccc13)-c1cc3c(c(=O)n1C2)COC(=O)[C@@]3(CC)OC(=O)[C@@H](NC(=O)[C@@H]1CCCN1C(=O)[C@H](CC(=O)[O-])NC(=O)CCOCCOCCOCCNC(=O)[C@H](CCCCNC(=O)CCOCCOCCOCCNC(=O)CCC(=O)Nc1cccc2c(C(=O)NCC(=O)N3CC(F)(F)C[C@H]3C#N)ccnc12)NC(=O)CCOCCOCCOCCNC(=O)CCC(=O)Nc1cccc2c(C(=O)NCC(=O)N3CC(F)(F)C[C@H]3C#N)ccnc12)C(C)C.[Na+]
10 to 99 nM

Please give the measured IC50 for this compound: CC(C)[C@H](NC(=O)[C@@H]1CCCN1C(=O)[C@H](CC(=O)O)NC(=O)CCOCCOCCOCCNC(=O)CCC(=O)Nc1nnc(S(N)(=O)=O)s1)C(=O)N=[S@](C)(=O)Cc1cc2nc(c1)OCCCOc1cc(F)ccc1-c1cc(ncc1F)N2 (relative stereo)
1 to 9.9 nM

----------
- System: HT29
- test_summary: Cytotoxicity in vitro in the presence and absence of elastase (MTT assay)
- Type: cell-based
- condition_notes: HT29 cells; with 10 nM elastase (NE); 72 h incubation; read-out: IC50 with neutrophil elastase
- Experimental: Cultivation of cells was performed according to standard procedures with the media recommended by the provider. The cells, in a total volume of 100 μL, were seeded in a 96-well plate with a white bottom (#3610). After a 24 h incubation period at 37° C. and 5% CO2, the medium was exchanged by adding 90 μL fresh medium. […] The proliferation was detected using the MTT assay (ATCC). […] The formed dye was detected at 570 nm. […]
Starred links: 1 amine or outer side, 2 acyl side, 3 side chain; linkers in the order of their positions; H or OH if unused. Non-standard residues stand in square brackets, D forms with d. Residues, ends and D or L forms follow the SMILES beside them. Groups on a side chain read outwards from the residue. *: point of attachment. Camptothecin(7-Et) = CCc1c2c(nc3ccccc13)-c1cc3c(c(=O)n1C2)COC(=O)[C@@]3(CC)O*; Deacetylacetazolamide = NS(=O)(=O)c1nnc(N*)s1; Suc = O=C(CCC(=O)[*:2])[*:1]; PEG3 = NCCOCCOCCOCCC(=O)O
Consider the following molecules and their measured IC50 readings.

Example entries begin here.
molecule	IC50
CCc1c2c(nc3ccccc13)-c1cc3c(c(=O)n1C2)COC(=O)[C@@]3(CC)OC(=O)[C@@H](NC(=O)[C@@H]1CCCN1C(=O)[C@H](CC(=O)O)NC(=O)CCOCCOCCOCCNC(=O)[C@H](CCCCNC(=O)CCOCCOCCOCCNC(=O)CCC(=O)Nc1nnc(S(N)(=O)=O)s1)NC(=O)CCOCCOCCOCCNC(=O)CCC(=O)Nc1nnc(S(N)(=O)=O)s1)C(C)C [Compound 8] ({Deacetylacetazolamide-Suc-PEG3}-K([PEG3-Suc-Deacetylacetazolamide])[PEG3]DPV-{Camptothecin(7-Et)})	10 to 99 nM
CC[C@@]1(OC(=O)[C@@H](NC(=O)[C@@H]2CCCN2C(=O)[C@H](CC(=O)O)NC(=O)CCOCCOCCOCCNC(=O)CCC(=O)Nc2nnc(S(N)(=O)=O)s2)C(C)C)C(=O)OCc2c1cc1n(c2=O)Cc2c-1nc1cc(F)c(C)c3c1c2[C@@H](N)CC3	10 to 99 nM

# context switch: different molecule, same IC50
Please give the measured IC50 for this molecule: CCc1c2c(nc3ccccc13)-c1cc3c(c(=O)n1C2)COC(=O)[C@@]3(CC)OC(=O)[C@@H](NC(=O)[C@@H]1CCCN1C(=O)[C@H](CC(=O)O)NC(=O)CCOCCOCCOCCNC(=O)NC[C@H](NC(=O)CCCCNc1cc(C)ccn1)C(=O)N[C@@H](CC(=O)O)c1cc(Cl)cc(Cl)c1)C(C)C
10 to 99 nM
